Measured pIC50 of individual entries
- Target: JAK3 enzyme (Homo sapiens)
- Sequence (P52333 1-1124): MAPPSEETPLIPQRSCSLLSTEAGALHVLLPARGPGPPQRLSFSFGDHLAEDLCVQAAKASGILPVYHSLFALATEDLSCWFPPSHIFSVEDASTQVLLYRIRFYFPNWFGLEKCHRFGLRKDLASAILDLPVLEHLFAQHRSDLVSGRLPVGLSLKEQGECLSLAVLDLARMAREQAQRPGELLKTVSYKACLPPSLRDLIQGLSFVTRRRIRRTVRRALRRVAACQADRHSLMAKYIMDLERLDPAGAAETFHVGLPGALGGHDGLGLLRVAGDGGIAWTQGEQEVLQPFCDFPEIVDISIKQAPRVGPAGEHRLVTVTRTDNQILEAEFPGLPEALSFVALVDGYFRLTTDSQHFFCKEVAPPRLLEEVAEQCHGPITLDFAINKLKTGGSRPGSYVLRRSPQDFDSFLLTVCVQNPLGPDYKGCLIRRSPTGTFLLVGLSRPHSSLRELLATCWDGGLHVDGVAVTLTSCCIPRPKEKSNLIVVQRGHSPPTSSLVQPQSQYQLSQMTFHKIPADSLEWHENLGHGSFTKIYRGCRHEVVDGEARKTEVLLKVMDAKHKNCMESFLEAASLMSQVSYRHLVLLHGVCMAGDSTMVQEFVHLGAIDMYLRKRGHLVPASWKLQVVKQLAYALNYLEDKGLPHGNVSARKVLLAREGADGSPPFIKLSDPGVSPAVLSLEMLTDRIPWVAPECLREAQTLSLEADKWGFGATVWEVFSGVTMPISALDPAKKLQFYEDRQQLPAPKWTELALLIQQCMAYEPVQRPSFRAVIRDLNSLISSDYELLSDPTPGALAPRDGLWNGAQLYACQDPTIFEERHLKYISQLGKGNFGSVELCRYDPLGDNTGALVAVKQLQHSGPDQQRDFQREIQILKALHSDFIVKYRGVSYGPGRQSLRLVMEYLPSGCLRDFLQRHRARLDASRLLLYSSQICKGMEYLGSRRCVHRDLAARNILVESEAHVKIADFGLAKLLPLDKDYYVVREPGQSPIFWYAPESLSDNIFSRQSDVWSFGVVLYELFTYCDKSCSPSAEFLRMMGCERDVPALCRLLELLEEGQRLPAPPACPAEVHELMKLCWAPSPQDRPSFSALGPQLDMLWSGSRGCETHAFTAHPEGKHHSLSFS
- Protocol notes: JAK Caliper Enzyme Assay at 4 μM ATP
- Type: biochemical
// pIC50 is dimensionless: -log10 of concentration (M)

Consider the worked cases shown below.
{"Compound": "C=CC(=O)N1CC[C@H](Nc2cnc3[nH]cc(C(=O)NCC4CCCC4)c3n2)[C@H](OC)C1", "Target": "JAK3 enzyme (Homo sapiens)", "pIC50": 9.52}
{"Compound": "C=CC(=O)N1CCC(Nc2cnc3[nH]cc(C(=O)NCC4CCC4)c3n2)CC1", "Target": "JAK3 enzyme (Homo sapiens)", "pIC50": 9.41}
{"Compound": "C=CC(=O)N1CCN(c2cnc3[nH]cc(C(=O)NC(CO)CCCC)c3n2)CC1(C)C (racemic)", "Target": "JAK3 enzyme (Homo sapiens)", "pIC50": 8.31}
{"Compound": "C=CC(=O)N1CCC(Nc2cnc3[nH]cc(C(=O)NCC(C)(C)C)c3n2)CC1C (racemic)", "Target": "JAK3 enzyme (Homo sapiens)", "pIC50": 8.30}
{"Compound": "C=CC(=O)N1CCC(Nc2cnc3[nH]cc(C(=O)NCc4ccc(OC)cc4)c3n2)CC1", "Target": "JAK3 enzyme (Homo sapiens)", "pIC50": 9.32}
{"Compound": "C=CC(=O)N1CC[C@@H](Oc2cnc3[nH]cc(C(=O)NCC)c3n2)C[C@@H]1C (single isomer, unassigned) [Example 79]", "Target": "JAK3 enzyme (Homo sapiens)", "pIC50": 9.22}

pIC50 for C=CC(=O)N1CCN(c2cnc3[nH]cc(C(=O)NCC4(O)CCC(F)(F)CC4)c3n2)C[C@@H]1CC(C)C ?
8.54

pIC50 for C=CC(=O)N1CC[C@@H](Nc2cnc3[nH]cc(C(=O)NCC)c3n2)[C@@H](C)C1 (racemic) [Example 37] ?
9.43

pIC50 for C=CC(=O)N1CCC(Nc2cnc3[nH]cc(C(=O)NCC(C)C)c3n2)C1 (stereo in doubt) ?
9.91

pIC50 for C=CC(=O)N1CC(CF)CC(Nc2ncnc3[nH]ccc23)C1 (mixture of isomers) ?
8.72

pIC50 for C=CC(=O)N1CCN(c2cnc3[nH]cc(C(=O)NCC(C)(F)F)c3n2)CC1(C)C ?
8.50

pIC50 for C=CC(=O)N1CC[C@@H](Oc2cnc3[nH]cc(C(=O)N[C@@H](C)COC)c3n2)C1 ?
7.51

pIC50 for C=CC(=O)N1CCC(Oc2cnc3[nH]cc(C(C)O)c3n2)CC1 (racemic) ?
7.93

pIC50 for C=CC(=O)N1C[C@@H](COCCC#N)C[C@@H](Nc2ncnc3[nH]ccc23)C1 (single isomer, unassigned) ?
7.12

pIC50 for C=CC(=O)N1CCN(c2cnc3[nH]cc(C(=O)NC(CO)c4cccc(F)c4)c3n2)CC1(C)C (racemic) ?
8.24
